Test system: HT29 colon
method: NCI-60 one-dose screen, 48 h
condition: 10 µM unless noted
About 83,000 compounds went through this panel and 20% of them were active in at least one assay; those are over-represented in the sample as a whole. Active and inactive are the calls of the source. Rule for the calls: active = growth percent below 10; inactive = the rest.
Please reply with one of these outcomes: y (active), n (inactive)

COC(=O)C1CCC(NC(=O)c2csc([C@@H](C[C@H](C(C)C)N(C)C(=O)[C@@H](NC(=O)[C@H]3CCCCN3C)C(C)C)OC(C)=O)n2)CC1 (stereo partly drawn): y

Inquiry: Hi, do you know how CCOC(=O)[C@@H](C)C[C@H](Cc1ccccc1)NC(=O)c1csc([C@@H](C[C@H](C(C)C)N(C)C(=O)[C@@H](NC(=O)[C@H]2C[C@H](O)CCN2C)C(C)C)OC(C)=O)n1 came out in this test?
Reply text: y

Inquiry: Hi, do you know how COc1ccc([As]=[As]c2ccc(OC)c(NCS(=O)(=O)O)c2)cc1NCS(=O)(=O)O (stereo not drawn) came out in this test?
Reply text: n
